Cited source: patent US20240391984A1

binders and their reported Kd
target: polyclonal IgG (Gammanorm, Octapharma, Sweden); assay: SPR (Biacore 8K+), variant amine-coupled to CM5, Gammanorm as analyte, steady state fit
Field: value (include unit after the number)

Solved entries (count: 2):
binder	Kd
pAM122 (B3 domain of Protein L; pos 10 N, pos 45 H, pos 60 Y) (designed binder) PKEEVTIKANLIYADGKTQTAEFKGTFEEATAEAYRYADLLAKEHGKYTVDVADKGYTLYIKFAGKEKTPEE	89 nM
pAM169 (B2 domain of Protein L; pos 10 Y, pos 45 H, pos 60 Y) (designed binder) PKEEVTIKAYLIYADGKTQTAEFKGTFEEAAAEAYRYADALKKDHGEYTVDVADKGYTLYIKFAGKEKTPEE	76 nM

Please look at the following binder next.
input: Requested field: Kd. Item: pAM144 (B4 domain of Protein L; pos 10 N, pos 45 N, pos 60 N) (protein) PKEEVTIKANLIYADGKTQTAEFKGTFAEATAEAYRYADLLAKENGKYTADLEDGGYTINIRFAGKKVDEKPEE
output: 38 nM
